Origin of values: paper PMC9516332

Kindly state inhibition at 1 µM for each of the entries shown.
- targetOrTestSystem: panel of 255 wild-type kinases (Homo sapiens)
- procedureDetails: Kinase panel profiling at 1 µmol/L (MSA or IMAP), percentage inhibition
- Format: biochemical
- appliedConditions: p38γ; 1 µmol/L single concentration; read-out: %-inhibition, p38γ
Respond with the bare value in %.

Problem: # lookup: inhibition at 1 µM of `Cn1cnc2c(F)c(Nc3ccc(Br)cc3Cl)c(C(=O)NOCCO)cc21`
Result: -1.75

Problem: So what's the measured inhibition at 1 µM for this one? `CCn1c(=O)c(-c2cc(NC(=O)Nc3ccccc3)c(F)cc2Br)cc2cnc(NC)cc21`
Result: 0.893

Problem: Query: inhibition at 1 µM; subject: `CCc1nc(C(N)=O)c(Nc2ccc(N3CCC(N4CCN(C)CC4)CC3)c(OC)c2)nc1NC1CCOCC1`
Result: -0.507

Problem: Could you tell me which inhibition at 1 µM is on file for `COC(=O)N[C@@H](C)CNc1nccc(-c2cn(C(C)C)nc2-c2cc(Cl)cc(NS(C)(=O)=O)c2F)n1` ?
Result: 3.2

Problem: Given the entry `Cn1cc(-c2cc3c(N4CCN(c5ncc([C@@](C)(N)c6ccc(F)cc6)cn5)CC4)ncnn3c2)cn1` , report its measured inhibition at 1 µM.
Result: -0.867

Problem: Which inhibition at 1 µM value is on record for `Cc1cc(Nc2ncnc3ccc(NC4=NC(C)(C)CO4)cc23)ccc1Oc1ccn2ncnc2c1` ?
Result: -1.75

Problem: What value of inhibition at 1 µM has been recorded for this entry: `FC(F)(F)c1ccc(CNc2ccc(Cc3c[nH]c4ncc(Cl)cc34)cn2)cn1`
Result: 2.47

Problem: Which inhibition at 1 µM is listed for `C[C@H]1Oc2cc(cnc2N)-c2c(nn(C)c2C#N)CN(C)C(=O)c2ccc(F)cc21` ?
Result: -4.48

* * *

- targetOrTestSystem: panel of 255 wild-type kinases (Homo sapiens, UniProt P49759)
- Sequence (P49759 whole entry): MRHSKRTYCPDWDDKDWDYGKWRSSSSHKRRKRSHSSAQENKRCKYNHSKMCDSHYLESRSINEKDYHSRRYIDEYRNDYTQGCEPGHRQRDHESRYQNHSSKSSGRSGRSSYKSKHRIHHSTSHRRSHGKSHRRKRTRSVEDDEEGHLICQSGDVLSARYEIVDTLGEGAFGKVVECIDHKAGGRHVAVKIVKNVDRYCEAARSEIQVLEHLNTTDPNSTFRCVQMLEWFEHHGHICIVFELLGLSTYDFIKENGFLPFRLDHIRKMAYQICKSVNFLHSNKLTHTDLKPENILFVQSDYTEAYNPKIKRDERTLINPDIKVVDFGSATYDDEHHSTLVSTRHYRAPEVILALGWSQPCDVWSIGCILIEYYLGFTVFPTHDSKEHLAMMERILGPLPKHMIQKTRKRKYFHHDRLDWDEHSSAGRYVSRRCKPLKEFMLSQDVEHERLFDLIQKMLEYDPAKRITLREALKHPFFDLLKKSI
- procedureDetails: Kinase panel profiling at 1 µmol/L (MSA or IMAP), percentage inhibition
- Assay type: biochemical
- appliedConditions: kinase CLK1; 1 µmol/L single concentration; read-out: %-inhibition at 1 µmol/L, CLK1
propertyLabel: inhibition at 1 µM (%)
Write it as a number; the unit % goes unstated.

Problem: Entry under review: O=C(Nc1cnn2ccc(N3CCC[C@@H]3c3cc(F)ccc3F)nc12)N1CC[C@H](O)C1 [larotrectinib] . Reported inhibition at 1 µM?
Result: 5.31

Problem: For the molecule CCc1nc(C(N)=O)c(Nc2ccc(N3CCC(N4CCN(C)CC4)CC3)c(OC)c2)nc1NC1CCOCC1 [gilteritinib] , what inhibition at 1 µM is on record?
Result: 96

Problem: If you can, please state the reported inhibition at 1 µM value of Cc1nc(NC(=O)N2CCC[C@H]2C(N)=O)sc1-c1ccnc(C(C)(C)C(F)(F)F)c1 [alpelisib] .
Result: 59

Problem: Look up inhibition at 1 µM: Cn1cnc2c(F)c(Nc3ccc(Br)cc3Cl)c(C(=O)NOCCO)cc21 [selumetinib]
Result: 5

Problem: Data request, read-out inhibition at 1 µM, for FC(F)(F)c1ccc(CNc2ccc(Cc3c[nH]c4ncc(Cl)cc34)cn2)cn1 [pexidartinib]
Result: 13

Problem: What value of measured inhibition at 1 µM is listed for Cn1cnc2c(F)c(Nc3ccc(Br)cc3F)c(C(=O)NOCCO)cc21 [binimetinib] ?
Result: -1.7

Problem: Could you share which inhibition at 1 µM value was measured for COc1ccc(CN2C3CC2CN(c2ccc(-c4cc(OCC(C)(C)O)cn5ncc(C#N)c45)cn2)C3)cn1 [selpercatinib] ?
Result: 19

Problem: Data request, read-out inhibition at 1 µM, for CCn1c(=O)c(-c2cc(NC(=O)Nc3ccccc3)c(F)cc2Br)cc2cnc(NC)cc21 [ripretinib]
Result: 1

Problem: # lookup: inhibition at 1 µM of Cc1cc(Nc2ncnc3ccc(NC4=NC(C)(C)CO4)cc23)ccc1Oc1ccn2ncnc2c1 [tucatinib]
Result: 7

Problem: Can you look up the measured inhibition at 1 µM of COC(=O)N[C@@H](C)CNc1nccc(-c2cn(C(C)C)nc2-c2cc(Cl)cc(NS(C)(=O)=O)c2F)n1 [encorafenib] for me?
Result: 3

Problem: Need inhibition at 1 µM, item C[C@H]1Oc2cc(cnc2N)-c2c(nn(C)c2C#N)CN(C)C(=O)c2ccc(F)cc21 [lorlatinib]
Result: -2.47

Problem: Could you tell me which inhibition at 1 µM is on file for CO[C@]1(C(=O)N[C@@H](C)c2ccc(-n3cc(F)cn3)nc2)CC[C@H](c2nc(C)cc(Nc3cc(C)[nH]n3)n2)CC1 [pralsetinib] ?
Result: 32

Problem: So what does the record say about inhibition at 1 µM for CN1CCN(c2ccc(C(=O)Nc3n[nH]c4ccc(Cc5cc(F)cc(F)c5)cc34)c(NC3CCOCC3)c2)CC1 [entrectinib] ?
Result: 60

Problem: # query: inhibition at 1 µM of entry C[C@H](Nc1ncnc2nc[nH]c12)c1cc2cccc(Cl)c2c(=O)n1-c1ccccc1 [duvelisib]
Result: -0.419
